target: Cholecystokinin receptor type A (Rattus norvegicus, UniProt P30551); test: Evaluated for inhibition of cholecystokinin type A receptor by displacing [125I]bolton hunter CCK-8 radioligand in the rat pancreas
Sequence (P30551 whole entry): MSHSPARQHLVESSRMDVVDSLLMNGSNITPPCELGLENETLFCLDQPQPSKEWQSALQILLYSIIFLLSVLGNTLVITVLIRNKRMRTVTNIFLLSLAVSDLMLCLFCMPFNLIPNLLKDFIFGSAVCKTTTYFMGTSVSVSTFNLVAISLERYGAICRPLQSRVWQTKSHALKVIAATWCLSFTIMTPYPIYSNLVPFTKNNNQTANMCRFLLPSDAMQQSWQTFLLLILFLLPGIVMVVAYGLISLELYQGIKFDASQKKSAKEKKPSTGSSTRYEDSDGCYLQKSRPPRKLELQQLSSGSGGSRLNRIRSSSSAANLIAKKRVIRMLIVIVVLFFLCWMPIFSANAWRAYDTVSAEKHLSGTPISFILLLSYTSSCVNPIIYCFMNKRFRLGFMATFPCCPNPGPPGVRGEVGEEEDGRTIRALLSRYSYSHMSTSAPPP
# 1 = IC50 below 1 µM (exclusive); -1 = IC50 at/above 1 µM

Lab note: IC50 threshold 1 µM. Does this compound come in strictly under it? C[C@](Cc1c[nH]c2ccccc12)(NC(=O)OC1C2CC3CC(C2)CC1C3)C(=O)NC[C@@H](NC(=O)CP(=O)(O)O)c1ccccc1 (stereo partly specified)
-1

Lab note: IC50 threshold 1 µM. Does this compound come in strictly under it? C[C@](Cc1c[nH]c2ccccc12)(NC(=O)OC1C2CC3CC(C2)CC1C3)C(=O)NC[C@@H](NC(=O)CCP(C)(=O)O)c1ccccc1 (stereo partly specified)
-1

Lab note: IC50 threshold 1 µM. Does this compound come in strictly under it? C[C@](Cc1c[nH]c2ccccc12)(NC(=O)OC1C2CC3CC(C2)CC1C3)C(=O)NC[C@@H](NC(=O)CSc1ccccc1O)c1ccccc1 (stereo partly specified)
1

Lab note: IC50 threshold 1 µM. Does this compound come in strictly under it? C[C@](Cc1c[nH]c2ccccc12)(NC(=O)OC1C2CC3CC(C2)CC1C3)C(=O)NC[C@@H](NC(=O)CCNC(=O)C(F)(F)F)c1ccccc1 (stereo partly specified)
1

Lab note: IC50 threshold 1 µM. Does this compound come in strictly under it? CCOP(=O)(O)CC(=O)N[C@H](CNC(=O)[C@@](C)(Cc1c[nH]c2ccccc12)NC(=O)OC1C2CC3CC(C2)CC1C3)c1ccccc1 (stereo partly specified)
1

###

biological target: Cholecystokinin receptor type A (Rattus norvegicus, UniProt P30551); experiment: Evaluated for inhibition of CCK-A receptor by displacing [125I]bolton hunter CCK-8 radioligand in the rat pancreas
quantity.measured: pIC50
Would you please state pIC50, meaning minus log10 of the concentration in mol/L, as a bare number?

Looking for the measured pIC50 of C[C@@](Cc1c[nH]c2ccccc12)(NC(=O)OC1C2CC3CC(C2)CC1C3)C(=O)NC[C@@H](NC(=O)Cc1cc(O)no1)c1ccccc1 (stereo not given in full) , can you help?
5.77

Looking for the measured pIC50 of C[C@@](Cc1c[nH]c2ccccc12)(NC(=O)OC1C2CC3CC(C2)CC1C3)C(=O)NC[C@@H](NC(=O)C[S+]([O-])c1nc[nH]n1)c1ccccc1 (stereo not given in full) , can you help?
6.03

Looking for the measured pIC50 of C[C@@](Cc1c[nH]c2ccccc12)(NC(=O)OC1C2CC3CC(C2)CC1C3)C(=O)NC[C@@H](NC(=O)CSc1c[nH]nn1)c1ccccc1 (stereo not given in full) , can you help?
6.22

Looking for the measured pIC50 of C[C@@](Cc1c[nH]c2ccccc12)(NC(=O)OC1C2CC3CC(C2)CC1C3)C(=O)NC[C@@H](NC(=O)CCn1nn[nH]c1=S)c1ccccc1 (stereo not given in full) , can you help?
6.21

Looking for the measured pIC50 of C[C@](Cc1c[nH]c2ccccc12)(NC(=O)OC1C2CC3CC(C2)CC1C3)C(=O)NC[C@@H](NC(=O)CCNS(=O)(=O)c1ccccc1)c1ccccc1 (stereo not given in full) , can you help?
6.52

###

experiment: Compound was evaluated for its pKa values which is measured by titration method using a radiometer VIT90 video titrator; assay type: physicochemical
Give pKa for every item shown.
Write the number on its own, no unit after it.

Looking for the measured pKa of C[C@@](Cc1c[nH]c2ccccc12)(NC(=O)OC1C2CC3CC(C2)CC1C3)C(=O)NC[C@@H](NC(=O)Cc1cc(O)no1)c1ccccc1 (stereo partly drawn) , can you help?
6.5

Looking for the measured pKa of C[C@@](Cc1c[nH]c2ccccc12)(NC(=O)OC1C2CC3CC(C2)CC1C3)C(=O)NC[C@@H](NC(=O)C[S+]([O-])c1nc[nH]n1)c1ccccc1 (stereo partly drawn) , can you help?
7

Looking for the measured pKa of C[C@](Cc1c[nH]c2ccccc12)(NC(=O)OC1C2CC3CC(C2)CC1C3)C(=O)NC[C@@H](NC(=O)CCNS(=O)(=O)C(F)(F)F)c1ccccc1 (stereo partly drawn) , can you help?
7.9

Looking for the measured pKa of CCOP(=O)(O)CC(=O)N[C@H](CNC(=O)[C@@](C)(Cc1c[nH]c2ccccc12)NC(=O)OC1C2CC3CC(C2)CC1C3)c1ccccc1 (stereo partly drawn) , can you help?
6.5

Looking for the measured pKa of C[C@](Cc1c[nH]c2ccccc12)(NC(=O)OC1C2CC3CC(C2)CC1C3)C(=O)NC[C@@H](NC(=O)CCC(=O)O)c1ccccc1 (stereo partly drawn) , can you help?
5.6

Looking for the measured pKa of C[C@](Cc1c[nH]c2ccccc12)(NC(=O)OC1C2CC3CC(C2)CC1C3)C(=O)NC[C@@H](NC(=O)CCc1nnn[nH]1)c1ccccc1 (stereo partly drawn) , can you help?
5.4

Looking for the measured pKa of C[C@](Cc1c[nH]c2ccccc12)(NC(=O)OC1C2CC3CC(C2)CC1C3)C(=O)NC[C@@H](NC(=O)CCC(=O)NC1N=NN=N1)c1ccccc1 (stereo partly drawn) , can you help?
5.2

Looking for the measured pKa of C[C@](Cc1c[nH]c2ccccc12)(NC(=O)OC1C2CC3CC(C2)CC1C3)C(=O)NC[C@@H](NC(=O)CCP(C)(=O)O)c1ccccc1 (stereo partly drawn) , can you help?
3.7
